# procedure-details: amyloid nucleation score (Sup35N fusion, yeast selection) (log enrichment); library NNK2; higher = more nucleation; inactive = no reads after selection;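 further: zero at mode of non-aggregating sequences after 7 days selection at 30°C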
Quick reference for amyloid nucleation score among some substances
Number, no unit, nothing else.

| substance | amyloid nucleation score |
| --- | --- |
| REWEVCGDCLVGNNGWFRWV | 0.409 |

Data request: Entry `DDTLVVLPTRYLTPIWEMH` has what amyloid nucleation score?
Data returned: 2.4

Data request: Looking for the measured amyloid nucleation score of `MFGTMWAWFSVYACEVAWN` , can you help?
Data returned: 0.045

Data request: For the substance shown here, `RGRCNVVSSLTFTIRSLWTV` , give the reported amyloid nucleation score.
Data returned: 1.59

Data request: Value lookup for amyloid nucleation score; key = `CWNDSRMCR`
Data returned: -0.387

Data request: What amyloid nucleation score value was documented for this substance, `NTEEDDKRVRMGELVVEYSN` ?
Data returned: 1.36

Data request: Need amyloid nucleation score, item `MGGQLLSNECLHSDSFVCFH`
Data returned: 1.21

Data request: Given `WNSIYGLAEMQVCWWFGWGC` , state its recorded amyloid nucleation score.
Data returned: -0.628

Data request: Name the recorded amyloid nucleation score for `SVTRWEHAMAVPKKLLHSGR` .
Data returned: 1.05

Data request: Field request: amyloid nucleation score | item: `TRAFLIIRYVKLDTNFVI`
Data returned: 2.19

Data request: GET /values?readout=amyloid nucleation score&item= `NVLLKNLESPIFYRDMTTL`
Data returned: -0.252

Data request: Could you share which amyloid nucleation score value was measured for `GRFIHKIVLNDGV` ?
Data returned: 0.084

Data request: Name the recorded amyloid nucleation score for `GKRYCWSLAVNRGFTDTLGV` .
Data returned: 0.261

Data request: Value lookup for amyloid nucleation score; key = `FINLYRVGVVCFILNKVGYF`
Data returned: 3.71

Data request: // query amyloid nucleation score value for entry `LTSGNSMIVVS`
Data returned: 0.15

Data request: Need amyloid nucleation score, item `FRSKPAFRVMGVVCRGFYFL`
Data returned: -0.637

Data request: Look up amyloid nucleation score: `MNVGCIDQFYCMWRCNIFWP`
Data returned: 7.68

Data request: Param item = `SNGYYSNGPTLLHATTHVTV` ; retrieve measured amyloid nucleation score.
Data returned: -0.431

Data request: Need amyloid nucleation score, item `PYRPHYAAVLRLAR`
Data returned: 0.08

Data request: I have this substance here, `SGVHNYSARVG` , and I need its recorded amyloid nucleation score.
Data returned: -0.442

Data request: // amyloid nucleation score lookup, key: `TRPRVKPWAMFRNIYD`
Data returned: -1.33

Data request: I'd like to know its amyloid nucleation score. The substance in question is `WQSAEEWMLPYGVNMVVSWA`
Data returned: 0.483

Data request: Fill in: amyloid nucleation score of `LYTLTENRLRLYMIYAGLRW` is ___
Data returned: -0.362

Data request: Which amyloid nucleation score reading was recorded for the substance `SLAYRFRWKLGNKVKF` ?
Data returned: 2.02

* * *

# procedure-details: amyloid nucleation score (Sup35N fusion, yeast selection) (log enrichment); library NNK3; higher = more nucleation; inactive = no reads after selection
Assign Satisfied whenever amyloid nucleation score does not fall below 1; assign Not satisfied whenever it does.

# example entries with known answers
| substance | class-assignment |
| --- | --- |
| FSPMYFNWMIGVVCSGIVGN | Not satisfied |
| IYCPYVGCVMSLGTGCM | Satisfied |
| VLIKQECSQRFFDSNLNWHF | Not satisfied |
| LMNTYL | Satisfied |
| NRFCLRSTLSYSWYGDRSWA | Not satisfied |
| PHFQTFRDYVLCGISFSYCE | Satisfied |

Then this substance:
Data request: Please tell me: is the substance `YISFFGGFANNGYCWWICAS` at or over 1 in terms of amyloid nucleation score?
Data returned: Satisfied
